Data provenance: ChEMBL document CHEMBL3526130

PROTOCOL: AUC(0 to 2 hrs) in Sprague-Dawley rat brain at 1 mg/kg, sc by LC-MS/MS analysis
Assay type: ADME, organism-based
Design: time < 2 hr, dose 1 mg/kg, route subcutaneous
OUTCOME_MEASURE: AUC(0-t) at 2 h (µg·h/mL)
Answer format: numeric, µg·h/mL implied, no suffix.

INSERT INTO results (compound, experimental_value) VALUES
  ('CC(C)S(=O)(=O)N[C@H]1CCOC[C@@H]1c1ccc(-c2ccc(C#N)s2)cc1', 0.131);

Moving on to the next compound.
Request: Any idea what its AUC(0-t) at 2 h is? The compound is Cc1nc2n(c(=O)c1CCN1CCC(c3noc4cc(F)ccc34)CC1)CCCC2 [RISPERIDONE]
Result: 0.108

====

PROTOCOL: AUC(0 to infinity) in Sprague-Dawley rat brain at 0.2 mg/kg, sc by LC-MS/MS analysis
Format: ADME, organism-based
Design: time infinity, dose 0.2 mg/kg, route subcutaneous
OUTCOME_MEASURE: AUC(0-inf) (ng·h/mL)
Enter your answer as a number in ng·h/mL; do not include the unit.

Request: Entry CCCC(C)C1(CC)C(=O)NC(=S)NC1=O (stereo unspecified) [THIOPENTAL] : reported AUC(0-inf) = ?
Result: 215

====

PROTOCOL: AUC(0 to 7 hrs) in Sprague-Dawley rat cerebrospinal fluid at 0.2 mg/kg, sc by LC-MS/MS analysis
Format: ADME, organism-based
Set-up: time < 7 hr, dose 0.2 mg/kg, route subcutaneous
OUTCOME_MEASURE: AUC(0-t) at 7 h
Dear colleague, please send the value followed by its unit.

Request: What does the data say about its AUC(0-t) at 7 h? Entry: CCCC(C)C1(CC)C(=O)NC(=S)NC1=O (stereo unspecified)
Result: 16.4 ng·h/mL

====

AUC(0-t) at 7 h: recorded values
PROTOCOL: AUC(0 to 7 hrs) in Sprague-Dawley rat plasma at 3 mg/kg, sc by LC-MS/MS analysis
Assay type: ADME, organism-based
Parameters: time < 7 hr, dose 3 mg/kg, route subcutaneous
Provide a numeric answer, followed by its unit.

INSERT INTO results (compound, experimental_value) VALUES
  ('Nc1nc(O)c2ncn(COC(CO)CO)c2n1', '1700 ng·h/mL'),
  ('NC(=O)N1c2ccccc2C=Cc2ccccc21 [CARBAMAZEPINE]', '2270 ng·h/mL');

Request: Name the reported AUC(0-t) at 7 h value associated with the compound CCN(CC)CCNC(=O)c1cc(Cl)c(N)cc1OC [METOCLOPRAMIDE]
Result: 365 ng·h/mL

====

PROTOCOL: AUC(0 to 2 hrs) in Sprague-Dawley rat cerebrospinal fluid at 2 mg/kg, sc by LC-MS/MS analysis
Type: ADME, organism-based
Set-up: time < 2 hr, dose 2 mg/kg, route subcutaneous
OUTCOME_MEASURE: AUC(0-t) at 2 h (ng·h/mL)
Numbers only here, please. The scale is ng·h/mL.

Request: Record request: AUC(0-t) at 2 h value, item Clc1ccc2c(c1)N=C(N1CCNCC1)c1ccccc1N2
Result: 4.8

====

PROTOCOL: AUC(0 to infinity) in Sprague-Dawley rat cerebrospinal fluid at 10 mg/kg, sc by LC-MS/MS analysis
Assay type: ADME, organism-based
Set-up: time infinity, dose 10 mg/kg, route subcutaneous
OUTCOME_MEASURE: AUC(0-inf) (ng·h/mL)
Just the number please, in ng·h/mL, no unit attached.

Request: Given CN(C)CCCC1(c2ccc(F)cc2)OCc2cc(C#N)ccc21 (racemic) [CITALOPRAM] , state its recorded AUC(0-inf).
Result: 421
